Molecular target: M4 receptor (Homo sapiens)
Construct: expressed in transfected cells
Sequence (P08173 whole entry): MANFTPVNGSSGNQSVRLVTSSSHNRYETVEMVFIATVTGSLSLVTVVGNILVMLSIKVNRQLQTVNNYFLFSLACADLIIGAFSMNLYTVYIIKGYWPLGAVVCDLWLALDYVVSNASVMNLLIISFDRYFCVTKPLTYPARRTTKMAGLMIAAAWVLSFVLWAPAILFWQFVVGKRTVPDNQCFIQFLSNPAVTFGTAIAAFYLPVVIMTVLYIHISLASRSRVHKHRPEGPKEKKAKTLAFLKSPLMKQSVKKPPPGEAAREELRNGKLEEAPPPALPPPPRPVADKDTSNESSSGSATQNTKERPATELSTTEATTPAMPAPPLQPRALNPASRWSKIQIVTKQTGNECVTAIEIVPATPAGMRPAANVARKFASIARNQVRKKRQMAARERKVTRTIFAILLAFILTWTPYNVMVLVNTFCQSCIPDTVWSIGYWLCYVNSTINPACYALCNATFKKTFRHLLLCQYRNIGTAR
Assay: Calcium flux (FLIPR) potentiation assay in cells stably expressing M4 receptor
Type: cell-based
Conditions: CHO-K1/M4/Gα15 cells; potentiation of acetylcholine (EC20) calcium flux; read-out: M4 FLIPR EC50
# reported EC50; entries follow
Give just the number in nM; leave the unit off.

// known answers, use as guide
Would you kindly share the measured EC50 for Cc1c2c(c3ncnn3c1C)CN(C(=O)CC1CN(c3ncc(F)cn3)C1)C2 ?
35.7

Do the same for Cc1c2c(c3ncnn3c1C)CN(C(=O)CC1CN(c3ccnc(C(F)(F)F)c3)C1)C2 please
14.7

Do the same for Cc1c2c(c3ncnn3c1C)CN(C(=O)CC1CN(c3ccc(OC(F)F)nc3)C1)C2 please
6.8

More entries:
Would you kindly share the measured EC50 for Cc1c2c(c3ncnn3c1C)CN(C(=O)C[C@@H]1C[C@H]1c1ccc(F)nc1)C2 ?
24.4

Do the same for Cc1c2c(n3ncnc3c1Cl)CN(C(=O)CC1CN(c3ncc(F)cn3)C1)C2 please
32.6

###

# reported MRT inf; entries follow
Test: Pharmacokinetic determination in SD rats
Details: rat, in vivo, po; male SD rats, p.o. 5 mg/kg; read-out: MRT 0-∞
Respond with the figure and its unit, in that order.

// known answers, use as guide
Would you kindly share the measured MRT inf for Cc1c2c(c3ncnn3c1C)CN(C(=O)OC1CN(c3ccnc(C(F)(F)F)c3)C1)C2 [Example 32] ?
2.7 h

Do the same for Cc1c2c(c3ncnn3c1C)CN(C(=O)CC1CN(c3ccc4c(cnn4C)c3)C1)C2 [Example 269] please
2 h

Do the same for Cc1c2c(c3ccnn3c1C)CN(C(=O)OC1CN(c3ccnc(C(F)F)c3)C1)C2 [Example 142] please
4.4 h

Do the same for CCn1ncc2cc(N3CC(CC(=O)N4Cc5c(C)c(C)n6ncnc6c5C4)C3)ccc21 [Example 307] please
2.02 h

Do the same for Cc1c2c(c3ncnn3c1C)CN(C(=O)CC1CN(c3ccnc(OC4CC4)c3)C1)C2 [Example 188] please
2.6 h

Do the same for Cc1c2c(c3ccnn3c1C)CN(C(=O)CC1CN(c3ccnc(C(F)(F)F)c3)C1)C2 [Example 76] please
3.9 h

Do the same for Cc1cn2nc(N3CC(OC(=O)N4Cc5c(C)c(C)n6ncnc6c5C4)C3)ccc2n1 [Example 105] please
4.3 h

Do the same for Cc1c2c(c3ncnn3c1C)CN(C(=O)CC1CN(c3cnc4c(c3)COC4)C1)C2 [Example 270] please
2.5 h

Do the same for Cc1c2c(c3ncnn3c1C)CN(C(=O)OC1CN(c3ccnc(OC(F)F)c3)C1)C2 [Example 123] please
3.5 h

Do the same for Cc1c2c(n3ncnc3c1Cl)CN(C(=O)CC1CN(c3ncc(F)cn3)C1)C2 [Example 346] please
5.02 h

More entries:
Would you kindly share the measured MRT inf for Cc1c2c(n3ncnc3c1Cl)CN(C(=O)CC1CN(c3ncc(C(F)(F)F)cn3)C1)C2 [Example 317] ?
11.2 h

Do the same for Cc1c2c(c3ncnn3c1C)CN(C(=O)CC1CN(c3ccc4nc(C(F)F)cn4n3)C1)C2 [Example 189] please
2.6 h

Do the same for Cc1c2c(c3ncnn3c1C)CN(C(=O)OC1CN(c3ccc4nc(C(F)F)cn4n3)C1)C2 [Example 191] please
3.9 h

Do the same for Cc1c2c(c3nccn3c1C)CN(C(=O)OC1CN(c3ccnc(C(F)F)c3)C1)C2 [Example 141] please
1.7 h

Do the same for Cc1c2c(c3ncnn3c1C)CN(C(=O)CC1CN(c3ccnc(OC(F)F)c3)C1)C2 [Example 52] please
2.6 h

Do the same for COc1cc(N2CC(CC(=O)N3Cc4c(C)c(C)n5ncnc5c4C3)C2)c(Cl)cn1 [Example 147] please
2.4 h

Do the same for COc1cc(N2CC(CC(=O)N3Cc4c(C)c(C)n5ncnc5c4C3)C2)ccn1 [Example 236] please
4.6 h
